# Test system: PPARg:RXRa DBDmut IVT, anti-RXR (DBD mutation: RXRa K156A/R161A, NR concentration 270 nM, RXRa partner concentration 90 nM)
# PROCEDURE_SUMMARY: PBM binding z-score (relative to random genomic background probes); higher = stronger binding; sequences stand for … in GC…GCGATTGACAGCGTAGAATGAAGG
Each entry below carries its reported PBM binding z-score.
MEASURED_PROPERTY: PBM binding z-score

CHAIN: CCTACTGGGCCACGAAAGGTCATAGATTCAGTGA
MEASURED_PROPERTY: PBM binding z-score
REPORTED_RESULT: 5.75

CHAIN: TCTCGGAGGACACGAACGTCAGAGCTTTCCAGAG
MEASURED_PROPERTY: PBM binding z-score
REPORTED_RESULT: 0.985

CHAIN: ATCTCTAGGTAACCAAGCTCAGTGAATGCCGAAC
MEASURED_PROPERTY: PBM binding z-score
REPORTED_RESULT: 2.93

CHAIN: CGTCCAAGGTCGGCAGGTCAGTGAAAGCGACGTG
MEASURED_PROPERTY: PBM binding z-score
REPORTED_RESULT: -0.305

CHAIN: GCTGATAGGTCAACTGATGGTCAGCTAAAGCTCG
MEASURED_PROPERTY: PBM binding z-score
REPORTED_RESULT: 3.71

CHAIN: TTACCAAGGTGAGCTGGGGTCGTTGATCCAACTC
MEASURED_PROPERTY: PBM binding z-score
REPORTED_RESULT: 0.928

CHAIN: CGTCCAAGGTCAAGGTCAGAGAAAGAGACTCGAA
MEASURED_PROPERTY: PBM binding z-score
REPORTED_RESULT: 4.02

CHAIN: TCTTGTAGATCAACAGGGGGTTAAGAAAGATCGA
MEASURED_PROPERTY: PBM binding z-score
REPORTED_RESULT: 2.83

CHAIN: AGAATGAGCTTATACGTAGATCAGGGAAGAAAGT
MEASURED_PROPERTY: PBM binding z-score
REPORTED_RESULT: -1.19

CHAIN: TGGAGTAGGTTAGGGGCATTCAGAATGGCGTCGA
MEASURED_PROPERTY: PBM binding z-score
REPORTED_RESULT: 2.77

CHAIN: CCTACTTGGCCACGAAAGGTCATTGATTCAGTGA
MEASURED_PROPERTY: PBM binding z-score
REPORTED_RESULT: 1.97

CHAIN: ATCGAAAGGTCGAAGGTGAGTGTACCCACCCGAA
MEASURED_PROPERTY: PBM binding z-score
REPORTED_RESULT: -0.0432

* * *

# System: RARg:RXRa (NR concentration 270 nM, RXRa partner concentration 90 nM)
# PROCEDURE_SUMMARY: PBM binding z-score (relative to random genomic background probes); higher = stronger binding; sequences stand for … in GC…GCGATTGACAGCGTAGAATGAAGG
Classify as follows. Reported PBM binding z-score greater than or equal to 0.2: Y. Reported PBM binding z-score below: N.

CHAIN: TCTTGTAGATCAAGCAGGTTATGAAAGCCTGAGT
DISCRETE_LABEL: N
//
CHAIN: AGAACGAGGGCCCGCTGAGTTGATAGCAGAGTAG
DISCRETE_LABEL: N
//
CHAIN: CAAACTAGGTCAAAGGCCAAAGTCGAGCCAACCA
DISCRETE_LABEL: Y
//
CHAIN: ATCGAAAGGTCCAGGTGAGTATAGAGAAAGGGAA
DISCRETE_LABEL: Y
//
CHAIN: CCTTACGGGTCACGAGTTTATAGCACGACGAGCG
DISCRETE_LABEL: Y
//
CHAIN: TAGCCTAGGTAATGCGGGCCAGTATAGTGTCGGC
DISCRETE_LABEL: N
//
CHAIN: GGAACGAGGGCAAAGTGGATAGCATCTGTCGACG
DISCRETE_LABEL: Y
//
CHAIN: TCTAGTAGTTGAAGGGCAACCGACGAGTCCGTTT
DISCRETE_LABEL: N
//
CHAIN: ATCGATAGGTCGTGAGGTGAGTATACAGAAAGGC
DISCRETE_LABEL: Y
//
CHAIN: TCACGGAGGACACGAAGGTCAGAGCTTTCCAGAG
DISCRETE_LABEL: Y
//
CHAIN: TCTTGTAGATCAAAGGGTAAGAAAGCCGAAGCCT
DISCRETE_LABEL: N
//
CHAIN: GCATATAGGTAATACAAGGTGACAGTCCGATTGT
DISCRETE_LABEL: Y

* * *

# System: RARa:RXR (NR concentration 270 nM, RXRa partner concentration 90 nM)
# PROCEDURE_SUMMARY: PBM binding z-score (relative to random genomic background probes); higher = stronger binding; sequences stand for … in GC…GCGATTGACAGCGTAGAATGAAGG
Classify as follows. Reported PBM binding z-score greater than or equal to 3: yes. Reported PBM binding z-score below: no.

CHAIN: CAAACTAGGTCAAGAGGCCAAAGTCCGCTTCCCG
DISCRETE_LABEL: no

CHAIN: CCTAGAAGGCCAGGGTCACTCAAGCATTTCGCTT
DISCRETE_LABEL: yes

CHAIN: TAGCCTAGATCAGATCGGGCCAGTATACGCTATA
DISCRETE_LABEL: no

CHAIN: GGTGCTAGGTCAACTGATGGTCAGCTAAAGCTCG
DISCRETE_LABEL: yes

CHAIN: ACTTACGGGTCAACGAGGGTATAGCACGCGTATA
DISCRETE_LABEL: yes

CHAIN: ACCTCTAGGTAAGACTCAGTTCAGTGAAGAACGC
DISCRETE_LABEL: no

CHAIN: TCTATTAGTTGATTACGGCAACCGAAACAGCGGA
DISCRETE_LABEL: no

CHAIN: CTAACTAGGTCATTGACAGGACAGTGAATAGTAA
DISCRETE_LABEL: no

CHAIN: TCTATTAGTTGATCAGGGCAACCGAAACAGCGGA
DISCRETE_LABEL: no

CHAIN: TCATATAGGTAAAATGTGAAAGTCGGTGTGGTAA
DISCRETE_LABEL: no

CHAIN: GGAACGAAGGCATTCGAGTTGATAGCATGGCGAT
DISCRETE_LABEL: no

CHAIN: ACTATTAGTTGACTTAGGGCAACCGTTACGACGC
DISCRETE_LABEL: no

* * *

# System: VDR homodimer (NR concentration 270 nM)
# PROCEDURE_SUMMARY: PBM binding z-score (relative to random genomic background probes); higher = stronger binding; sequences stand for … in GC…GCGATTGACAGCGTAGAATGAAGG
Classify as follows. Reported PBM binding z-score greater than or equal to 0.3: y. Reported PBM binding z-score below: n.

CHAIN: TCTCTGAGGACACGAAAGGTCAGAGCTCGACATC
DISCRETE_LABEL: y

CHAIN: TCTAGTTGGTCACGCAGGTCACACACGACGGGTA
DISCRETE_LABEL: y

CHAIN: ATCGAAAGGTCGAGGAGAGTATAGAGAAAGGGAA
DISCRETE_LABEL: n

CHAIN: CCTTACGGGTCACTCCAGGTTATAGTATCGGAGT
DISCRETE_LABEL: y

CHAIN: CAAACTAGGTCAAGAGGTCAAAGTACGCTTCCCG
DISCRETE_LABEL: y

CHAIN: TCATATAGGTAAATGCTAGGTGAATGTCCGATCT
DISCRETE_LABEL: n

CHAIN: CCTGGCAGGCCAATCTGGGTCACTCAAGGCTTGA
DISCRETE_LABEL: n

CHAIN: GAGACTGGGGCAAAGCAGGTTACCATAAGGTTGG
DISCRETE_LABEL: n

CHAIN: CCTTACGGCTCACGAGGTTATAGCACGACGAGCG
DISCRETE_LABEL: y

CHAIN: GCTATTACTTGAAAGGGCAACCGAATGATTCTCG
DISCRETE_LABEL: n

CHAIN: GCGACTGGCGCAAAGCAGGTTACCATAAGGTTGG
DISCRETE_LABEL: n

CHAIN: CGTCAAAGTTCAAGGTAACGTAGCAGAAAGCAGC
DISCRETE_LABEL: y

CHAIN: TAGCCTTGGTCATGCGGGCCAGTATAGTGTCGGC
DISCRETE_LABEL: n

CHAIN: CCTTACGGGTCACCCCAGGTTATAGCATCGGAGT
DISCRETE_LABEL: y

CHAIN: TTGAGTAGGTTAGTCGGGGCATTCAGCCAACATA
DISCRETE_LABEL: y

CHAIN: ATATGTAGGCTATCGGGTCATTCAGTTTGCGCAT
DISCRETE_LABEL: y

CHAIN: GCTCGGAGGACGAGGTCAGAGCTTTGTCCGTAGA
DISCRETE_LABEL: y

CHAIN: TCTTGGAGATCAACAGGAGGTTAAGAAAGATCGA
DISCRETE_LABEL: n

CHAIN: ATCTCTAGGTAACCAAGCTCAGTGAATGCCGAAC
DISCRETE_LABEL: n

CHAIN: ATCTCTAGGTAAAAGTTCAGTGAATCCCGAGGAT
DISCRETE_LABEL: y

CHAIN: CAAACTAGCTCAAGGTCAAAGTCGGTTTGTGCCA
DISCRETE_LABEL: y

CHAIN: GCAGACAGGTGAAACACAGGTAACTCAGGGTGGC
DISCRETE_LABEL: n

CHAIN: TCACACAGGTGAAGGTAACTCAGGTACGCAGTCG
DISCRETE_LABEL: n

CHAIN: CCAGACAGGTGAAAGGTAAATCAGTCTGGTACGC
DISCRETE_LABEL: n

CHAIN: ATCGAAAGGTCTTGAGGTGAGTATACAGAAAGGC
DISCRETE_LABEL: n

CHAIN: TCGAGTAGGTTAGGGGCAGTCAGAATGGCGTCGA
DISCRETE_LABEL: n

CHAIN: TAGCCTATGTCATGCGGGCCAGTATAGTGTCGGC
DISCRETE_LABEL: n

CHAIN: AATACAGGGTCACTAGGCCAGGGTAGGTACGAAT
DISCRETE_LABEL: y

CHAIN: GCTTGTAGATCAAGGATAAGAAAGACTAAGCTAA
DISCRETE_LABEL: n

CHAIN: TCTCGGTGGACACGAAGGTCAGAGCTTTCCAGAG
DISCRETE_LABEL: n

CHAIN: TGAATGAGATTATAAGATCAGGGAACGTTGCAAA
DISCRETE_LABEL: n

CHAIN: CCGACTGGGGTAGAAAGGTTACCATACCATCCGG
DISCRETE_LABEL: n

CHAIN: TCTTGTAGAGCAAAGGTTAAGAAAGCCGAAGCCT
DISCRETE_LABEL: n

CHAIN: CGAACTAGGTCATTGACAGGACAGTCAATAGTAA
DISCRETE_LABEL: y

CHAIN: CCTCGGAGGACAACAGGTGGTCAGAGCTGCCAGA
DISCRETE_LABEL: n

CHAIN: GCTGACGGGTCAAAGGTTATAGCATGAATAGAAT
DISCRETE_LABEL: y

CHAIN: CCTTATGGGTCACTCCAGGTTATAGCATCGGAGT
DISCRETE_LABEL: y

CHAIN: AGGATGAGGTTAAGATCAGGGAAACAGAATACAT
DISCRETE_LABEL: y

CHAIN: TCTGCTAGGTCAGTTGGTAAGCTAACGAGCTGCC
DISCRETE_LABEL: n

CHAIN: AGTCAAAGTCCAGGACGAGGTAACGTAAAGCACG
DISCRETE_LABEL: n

CHAIN: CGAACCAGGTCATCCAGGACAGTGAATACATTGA
DISCRETE_LABEL: y

CHAIN: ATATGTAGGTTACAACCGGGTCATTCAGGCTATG
DISCRETE_LABEL: y

CHAIN: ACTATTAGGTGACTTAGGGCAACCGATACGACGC
DISCRETE_LABEL: n

CHAIN: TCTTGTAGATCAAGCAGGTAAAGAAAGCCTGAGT
DISCRETE_LABEL: n

CHAIN: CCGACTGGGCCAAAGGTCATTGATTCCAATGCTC
DISCRETE_LABEL: y

CHAIN: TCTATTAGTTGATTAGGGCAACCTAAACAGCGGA
DISCRETE_LABEL: n

CHAIN: TCTTGTAGATCAATAGAGGTTAAAAAAGTGCGCT
DISCRETE_LABEL: y

CHAIN: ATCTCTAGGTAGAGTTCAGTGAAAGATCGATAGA
DISCRETE_LABEL: y

CHAIN: CAAACTAGGTCAAGAGGTCAATGTCCGCTTCCCG
DISCRETE_LABEL: y

CHAIN: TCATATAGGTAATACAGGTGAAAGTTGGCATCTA
DISCRETE_LABEL: y

CHAIN: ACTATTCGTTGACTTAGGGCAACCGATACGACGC
DISCRETE_LABEL: n
